- Test system: HTT
- assay-name: Splicing RT-qPCR assay, HTT mRNA canonical junction (CJ) and alternative junction (AJ)
- Type: cell-based, human
- run-conditions: Homo sapiens, RT-qPCR panel, canonical junction mRNA; compound concentration having 50% response in CJ decrease; read-out: HTT IC50 (decrease in CJ mRNA levels)
pIC50: −log10 of the molar value.
parameter-measured: pIC50

compound: c1nc2c(-c3cn[nH]c3)ccc(-c3cnc(N4CCNC(C5CC5)C4)nn3)c2s1 (stereo not shown)
parameter-measured: pIC50
result: 6.00 to 7.00
//
compound: c1nc2c(-c3cn[nH]c3)ccc(-c3ccc(N4CC5(CCNCC5)C4)nn3)c2s1
parameter-measured: pIC50
result: 5.00 to 6.00
//
compound: c1cnn(-c2ccc(-c3cnc(N4CCNC(C5CC5)C4)nn3)c3cn[nH]c23)c1 (stereo not shown)
parameter-measured: pIC50
result: > 7.00
//
compound: Cl.Fc1cc(-c2ccc(NC3CCNCC3)nn2)c2[nH]ncc2c1-c1cn[nH]c1 [Compound 350, hydrochloride]
parameter-measured: pIC50
result: < 5.00
